Reference for the values: the nanobody polyreactivity screen of Harvey et al. (2022)

Measurement Notes: yeast display, Sf9 membrane polyspecificity reagent, FACS + sequencing; frameworks hold sequencing errors
Measurement Kind: polyreactivity (PSR sort gate)

{"Sequence Text": "QVQLVESGGGLVQAGGSLRISCAASGSIFDYYAMGWYIQAPGKERELVAAISWSGGSTYYADSVKGRFTISRDNAKNTVYLQMNSLKPVDTAVYYCAAEYYGGEFDYWGQGTQVTVSS", "Measurement Kind": "polyreactivity (PSR sort gate)", "Test Result": "low polyreactivity"}
{"Sequence Text": "QVQLVESGGGLVQAGGSLRLSCAASGIIFGGYDMGWYRQAPGKERELVAAISWSGGSTYYADSVKGRFTISRDNAKNTVYLQMNSLKPEDTAVYYCAAAYYAPSRDYYYWGQGTQVTVSS", "Measurement Kind": "polyreactivity (PSR sort gate)", "Test Result": "low polyreactivity"}
{"Sequence Text": "QVQLVESGGGLVQAGGSLRVSCAASGSNFGGYAMGWYRQAPGKERELVAAISSRGIDTTYADSVKVRFTISRDNAKNTVYLQMYSLKPDDTAVYYCAEFVSDATVGPSNGLDYWGQGTQVTVSS", "Measurement Kind": "polyreactivity (PSR sort gate)", "Test Result": "low polyreactivity"}
{"Sequence Text": "QVQLVESGGGLVQAGGSLRLSCAASGSTFDYYGMGWYRQAPGKERELVAAITTSGGSTYYADSVKGRFTISRDNAKNTVYLQMNSLKPEDTAVYYCAAESYWYGTSPYYYLYEYDYWGQGTQVTVSS", "Measurement Kind": "polyreactivity (PSR sort gate)", "Test Result": "high polyreactivity"}

Now for a further sequence.
# input sequence: QVQLVESGGGLVQAGGSLRLSCAASGLTFDSSAMGWYRQAPGTERELVAAISFSGGRTYYADSVKGRFTISRDTAKNTVYLQMNSLKPDDTAVYYCAAQLRYKYDYWGHGTQVTVSS ; wanted: its polyreactivity (PSR sort gate)
high polyreactivity
